- Procedure text: Stability test under influencing factors (high temperature, high humidity, illumination)
- Assay type: physicochemical
- Test context: Left to stand open at 60 °C for 10 days
Value kind: Purity (%)

{"Compound": "COc1cc2nccc(Oc3ccc(NC(=O)c4nn(C(C)C)cc(-c5ccc(F)cc5)c4=O)nc3)c2cc1OC [Crystal form III]", "Purity [%]": 99.90}
{"Compound": "COc1cc2nccc(Oc3ccc(NC(=O)c4nn(C(C)C)cc(-c5ccc(F)cc5)c4=O)nc3)c2cc1OC [Crystal form IV]", "Purity [%]": 99.91}
{"Compound": "COc1cc2nccc(Oc3ccc(NC(=O)c4nn(C(C)C)cc(-c5ccc(F)cc5)c4=O)nc3)c2cc1OC [Crystal form I]", "Purity [%]": 99.68}
{"Compound": "COc1cc2nccc(Oc3ccc(NC(=O)c4nn(C(C)C)cc(-c5ccc(F)cc5)c4=O)nc3)c2cc1OC [Crystal form II]", "Purity [%]": 99.73}
